System: MDA-MB-435
protocol details: NCI tumour cell line growth inhibition, 48 h
assay metric: TGI (µM)
Give just the number in µM; leave the unit off.

Here is how some compounds turned out for TGI.
COc1ccc(C(=O)COC(=O)[C@H](C[Se][Se]C[C@H](NC(=O)c2ccc(Br)cc2F)C(=O)OCC(=O)c2ccc(OC)cc2)NC(=O)c2ccc(Br)cc2F)cc1 :: 5.05
Clc1ccc2c(c1)N(CCCN1CCCC1)c1ccccc1S2 :: 4.02

Continue with the next compound.
input: Please report the recorded TGI for O=C(c1ccccc1)c1ccc(Oc2ccc([N+](=O)[O-])cc2[N+](=O)[O-])cc1 .
output: 3.98
